Tested on: UACC-62 melanoma
test details: NCI tumour cell line growth inhibition, 48 h; in the data active = GI50 below about 0.43 µM; inactive = the rest
Outcome field: choose from yes (1) for active, no (0) for inactive

The examples below pair each entry with its known result.
C#Cc1cccc(NC(=O)C2CCCCN2C(=O)CCl)c1 (stereo not drawn) ... no (0)
O=C(COc1ccc(Cl)cc1Cl)NNc1ccc([N+](=O)[O-])cc1 ... no (0)

Okay, next one:
Outcome logged for COC1C[C@H](O[C@@H]2C[C@H](O[C@@H]3C[C@H](O[C@@H]4C(=O)c5c(cc6cc(O[C@H]7C[C@@H](O[C@H]8C[C@@H](O)[C@H](O)C(C)O8)[C@H](O)C(C)O7)c(C)c(O)c6c5O)C[C@H]4C(OC)C(=O)[C@@H](O)[C@@H](C)O)OC(C)[C@H]3O)OC(C)[C@@H]2O)OC(C)[C@@H]1O (stereo partly drawn) in this assay: yes (1)

---

Test system: SK-MEL-5 melanoma
test details: NCI tumour cell line growth inhibition, 48 h
We use 10 µM as the dividing line for TGI: on or above the line is YES, below is NO.

The examples below pair each entry with its known result.
O=C1/C(=C/Cc2ccco2)N=C(c2ccccc2)N1c1nc2ccc(Sc3ccccc3)cc2[nH]1 ... YES
C1=Nc2ccc(cc2)-c2ccc(cc2)N=Cc2ccccc2OCc2cccc(n2)COc2ccccc21 ... YES
O=C(Nc1ccc(-c2cn3ccccc3n2)cc1)c1cc(Br)ccc1O ... YES
COC1C[C@H](O[C@@H]2C[C@H](O[C@@H]3C[C@H](O[C@@H]4C(=O)c5c(cc6cc(O[C@H]7C[C@@H](O[C@H]8C[C@@H](O)[C@H](O)C(C)O8)[C@H](O)C(C)O7)c(C)c(O)c6c5O)C[C@H]4C(OC)C(=O)[C@@H](O)[C@@H](C)O)OC(C)[C@H]3O)OC(C)[C@@H]2O)OC(C)[C@@H]1O (some centres not stated) ... NO
Cc1[nH]c(-c2ccccc2)c(O)c1C(=O)OC1CC(C)CCC1C(C)C (configuration not stated) ... YES
CCOC(=O)C(NS(=O)(=O)c1ccccc1)(C(F)(F)F)P(=O)(OCC(C)C)OCC(C)C (configuration not stated) ... YES
CC(=O)OC1CC[C@@]2(C)C(=CC[C@@H]3[C@@H]2CC[C@]2(C)Nc4c(cnn4-c4ccc(F)cc4)C[C@@H]32)C1 (some centres not stated) ... YES
O=c1oc2c(Cl)cc(Cl)cc2cc1-c1cn2c(n1)sc1ccccc12 ... YES
CC(=O)Nc1ccc2c(c1)[nH]c(=O)c1cc(NC(C)=O)ccc12 ... YES
O=C(Nc1c(Cl)cccc1Cl)Oc1cccc2cccnc12 ... YES

Could you tell me if the measured TGI of `O=C(COc1ccc(Cl)cc1Cl)NNc1ccc([N+](=O)[O-])cc1` reaches 10 µM or more? YES

Could you tell me if the measured TGI of CC1(/C=C/c2ccc(-c3ccccc3)cc2)CCn2cnc3ncnc(c32)N1O (configuration not stated) reaches 10 µM or more? NO

---

System: SK-MEL-28 melanoma
test details: NCI tumour cell line growth inhibition, 48 h
measurement type: TGI

Consider the worked cases shown below.
O=C1C(Nc2ccc(S(=O)(=O)Nc3cnc4ccccc4n3)cc2)=CC(=Nc2ccc(S(=O)(=O)Nc3cnc4ccccc4n3)cc2)c2ccccc21 ... 33 µM
O=c1[nH]c(C2CCCCC2)nc2ccc(Cl)cc12 ... > 100 µM
CCN(CC)CCNC(=O)C1COc2ccc(-c3cc(=O)c4ccccc4o3)cc2O1 (centres undefined) ... 33.4 µM
CCCCCCCCC/C=C1/CC(CO)(COC(=O)C2CCCCC2)OC1=O (centres undefined) ... > 100 µM
COc1ccc(/C=C2\CCC(C)(CN(C)C)C2=O)cc1Br (centres undefined) ... 45.4 µM

TGI measured on `Nc1ncnc2c1ncn2Cc1ccc(CCl)cc1` = > 100 µM

TGI measured on `COc1ccc(COc2ccc(Cc3cnc(N)nc3N)cc2OC)cc1` = > 25 µM

TGI measured on `COc1ccc(N2CCN(c3nc(-c4ccccn4)nc4sc5c(c34)CCCCCC5)CC2)cc1` = > 100 µM

TGI measured on `Cc1ccccc1N=C(c1ccccc1)C1C(=O)c2ccccc2C1=O` = > 100 µM

TGI measured on Nc1nc(N)c2c(n1)NC(c1ccc(Cl)cc1)C1CCc3ccccc3C1=N2 (centres undefined) = 27.4 µM

TGI measured on `Cc1c(-c2c(F)cc(C(N)=O)c3[nH]c4c(c23)CC[C@H](C(C)(C)O)C4)cccc1-n1c(=O)c2cccc(F)c2n(C)c1=O` = > 100 µM
